System: 217524-143-R1-J4-PDC spheroids with HUVEC/MSC, viability;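 also: spheroids exposed to agents for seven days before reading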
Assay: Anticancer human tumor 217524-143-R1-J4-PDC patient-derived pancreatic carcinoma cell line growth inhibition [CLK]
Conditions: second compound 0.1 µM; first compound 1 µM; stronger effect = lower value
Response field label: string, one of T (viability, T/C strictly below 50%) or F.

molecule="COc1ccc([C@@H](O)c2cc(-c3ncnc4cc(N5CCOCC5)ccc34)c(F)cc2Cl)nn1 + CNC(=O)c1ccc(Nc2nc(OC3CCCC3)c3c(-c4ccc5nc(C)oc5c4)c[nH]c3n2)c(OC)c1" assay_target="217524-143-R1-J4-PDC spheroids with HUVEC/MSC, viability" label_value=T
molecule="CC(Nc1ccc2c(c1)OCCn1cc(N3C(=O)OCC3C(F)F)nc1-2)C(N)=O (stereo unspecified) + CN1CCN(c2cc(C(=O)Nc3cc4cc(-c5cnn(C)c5)ccc4cn3)ccn2)CC1" assay_target="217524-143-R1-J4-PDC spheroids with HUVEC/MSC, viability" label_value=T
molecule="Nc1ccccc1NC(=O)c1ccc(CNC(=O)OCc2cccnc2)cc1 + CN1CCN(c2cc(C(=O)Nc3cc4cc(-c5cnn(C)c5)ccc4cn3)ccn2)CC1" assay_target="217524-143-R1-J4-PDC spheroids with HUVEC/MSC, viability" label_value=F
molecule="C=C(F)C(=O)N1CCN(c2nc(OCC3CCCN3C)nc3c2CCN(c2cccc4cccc(Cl)c24)C3)CC1CC#N (stereo unspecified) + CNC(=O)c1ccc(Nc2nc(OC3CCCC3)c3c(-c4ccc5nc(C)oc5c4)c[nH]c3n2)c(OC)c1" assay_target="217524-143-R1-J4-PDC spheroids with HUVEC/MSC, viability" label_value=T

Problem: viability, T/C strictly < 50% for this molecule? CC1COCCN1c1cc(C2(S(C)(=N)=O)CC2)nc(-c2ccnc3[nH]ccc23)n1 (stereo unspecified) + CN1CCN(c2cc(C(=O)Nc3cc4cc(-c5cnn(C)c5)ccc4cn3)ccn2)CC1
Solution: T

Problem: viability, T/C strictly < 50% for this molecule? Nc1ccn(C2OC(CO)C(O)C2(F)F)c(=O)n1 (stereo unspecified) + CN1CCN(c2cc(C(=O)Nc3cc4cc(-c5cnn(C)c5)ccc4cn3)ccn2)CC1
Solution: T

Problem: viability, T/C strictly < 50% for this molecule? C#Cc1c(F)ccc2cc(O)cc(-c3ncc4c(N5CC6CCC(C5)N6)nc(OCC56CCCN5CC(F)C6)nc4c3F)c12 (stereo unspecified) + CN1CCN(c2cc(C(=O)Nc3cc4cc(-c5cnn(C)c5)ccc4cn3)ccn2)CC1
Solution: F

The measurements presented in this section are drawn from PubChem BioAssay AID2060624.
